List of Ki values.
target: Sushi domains (SD1/2) protein; experiment: Fluorescence polarization (FP) competition assay with AJAP-1probe, calculated Ki; type: binding; conditions: Table 11, deep mutational scanning validation variants of AJAP-1WT; read-out: Ki (nM) mean ± SEM
Residues, ends and D or L forms follow the SMILES beside them.
I only need the number, in nM, no unit after it.

- Molecule: "CC[C@H](C)[C@H](NC(=O)[C@H](Cc1ccccc1)NC(=O)[C@H](CCC(=O)O)NC(=O)[C@@H](NC(=O)[C@H](CCC(=O)O)NC(C)=O)[C@@H](C)O)C(=O)N[C@H](C(=O)N[C@@H](Cc1c[nH]c2ccccc12)C(=O)NCC(=O)N1CCC[C@H]1C(=O)N[C@H](C(=O)NCC(=O)N[C@@H](CC(=O)O)C(=O)N[C@@H](CCC(=O)O)C(=O)N[C@@H](CC(=O)O)C(N)=O)[C@@H](C)O)C(C)C [ETEFIVWGPTGDED] (Ac-ETEFIVWGPTGDED-NH2)"
  Quantity kind: "Ki"
  Unit of measure: "nM"
  Data value: 30
- Molecule: "CC[C@H](C)[C@H](NC(=O)[C@H](Cc1ccccc1)NC(=O)[C@H](CCC(=O)O)NC(=O)[C@@H](NC(=O)[C@H](CCC(=O)O)NC(C)=O)[C@@H](C)O)C(=O)N[C@@H](C)C(=O)N[C@@H](Cc1c[nH]c2ccccc12)C(=O)NCC(=O)N1CCC[C@H]1C(=O)N[C@@H](Cc1c[nH]cn1)C(=O)NCC(=O)N[C@@H](CC(=O)O)C(=O)N[C@@H](CCC(=O)O)C(=O)N[C@@H](CC(=O)O)C(N)=O [ETEFIAWGPHGDED] (Ac-ETEFIAWGPHGDED-NH2)"
  Quantity kind: "Ki"
  Unit of measure: "nM"
  Data value: 38

As a next step, examine the molecule that follows.
Problem: What does the data say about its Ki? Entry: CC[C@H](C)[C@H](NC(=O)[C@H](Cc1ccccc1)NC(=O)[C@H](CCC(=O)O)NC(=O)[C@@H](NC(=O)[C@H](CCCNC(=N)N)NC(C)=O)[C@@H](C)O)C(=O)N[C@@H](C)C(=O)N[C@@H](Cc1c[nH]c2ccccc12)C(=O)NCC(=O)N1CCC[C@H]1C(=O)N[C@H](C(=O)NCC(=O)N[C@@H](CC(=O)O)C(=O)N[C@@H](CCC(=O)O)C(=O)N[C@@H](CC(=O)O)C(N)=O)[C@@H](C)O [RTEFIAWGPTGDED] (Ac-RTEFIAWGPTGDED-NH2)
Result: 87
